I'd be grateful if you could share measured IA: inhibitory activity of Mtb proteasome for these entries.
- measurementTarget: Mtb proteasome (Mycobacterium tuberculosis, UniProt P9WHT9)
- Construct: Proteasome activity of the supernatants was assessed; endogenous in cells; host or cells: Mycobacterium tuberculosis H37Ra (crude lysate supernatant)
- Sequence (P9WHT9 58-291): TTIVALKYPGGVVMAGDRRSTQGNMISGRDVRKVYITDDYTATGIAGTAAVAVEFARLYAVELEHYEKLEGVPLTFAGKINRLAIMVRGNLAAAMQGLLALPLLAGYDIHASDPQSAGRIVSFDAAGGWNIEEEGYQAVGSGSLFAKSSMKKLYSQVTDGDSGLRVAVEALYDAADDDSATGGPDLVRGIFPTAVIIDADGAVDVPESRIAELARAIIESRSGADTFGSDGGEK
- Sequence (P9WHU1 whole entry partner): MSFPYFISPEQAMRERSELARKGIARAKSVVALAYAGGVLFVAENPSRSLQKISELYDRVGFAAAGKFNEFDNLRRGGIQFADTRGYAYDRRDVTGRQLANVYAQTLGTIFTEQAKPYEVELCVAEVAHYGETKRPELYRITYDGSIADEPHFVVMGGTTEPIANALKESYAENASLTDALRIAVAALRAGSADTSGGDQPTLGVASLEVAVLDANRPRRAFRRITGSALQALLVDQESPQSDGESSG
- protocolText: biochemical
Express it in %; write the number only.

IA: inhibitory activity of Mtb proteasome of COc1ccc2cc1Oc1ccc(cc1)C[C@H]1c3cc(c(OC)cc3CCN1C)Oc1c(OC)c(OC)cc3c1[C@H](C2)N(C)CC3 on Mtb proteasome (Mycobacterium tuberculosis, UniProt P9WHT9)?
0.00

Item COc1ccc([C@H]2OC[C@H]3[C@@H]2CO[C@H]3c2ccc(O[C@@H]3O[C@H](CO)[C@@H](O)[C@H](O)[C@H]3O)c(OC)c2)cc1OC with Mtb proteasome (Mycobacterium tuberculosis, UniProt P9WHT9) - IA: inhibitory activity of Mtb proteasome?
20.02

Hi! What's the reported IA: inhibitory activity of Mtb proteasome for C=C(C)[C@@H]1CC[C@]2(CO)CC[C@]3(C)[C@H](CC[C@@H]4[C@@]5(C)CC[C@H](O)C(C)(C)[C@@H]5CC[C@]43C)[C@@H]12 on Mtb proteasome (Mycobacterium tuberculosis, UniProt P9WHT9)?
6.52

Short answer please: IA: inhibitory activity of Mtb proteasome, Mtb proteasome (Mycobacterium tuberculosis, UniProt P9WHT9), entry C=C1C[C@@]2(O)O[C@@]3(C[C@H]2C(C)C)[C@@H](C)CC[C@@H]13
34.66

# get_value(readout= IA: inhibitory activity of Mtb proteasome, system= Mtb proteasome (Mycobacterium tuberculosis, UniProt P9WHT9)) for O=C(O[C@@H]1Cc2c(O)cc(O)cc2O[C@@H]1c1cc(O)c(O)c(O)c1)c1cc(O)c(O)c(O)c1 [epigallocatechin gallate]
45.21

Enter reported IA: inhibitory activity of Mtb proteasome observed with Mtb proteasome (Mycobacterium tuberculosis, UniProt P9WHT9) for C[C@H]1CC[C@@H]2N(C1)C[C@H]1[C@@H]3C[C@H]4[C@@H](C[C@H](O)[C@H]5C[C@@H](O)CC[C@@]54C)[C@@H]3CC[C@@H]1[C@]2(C)O
3.05

# value lookup — system Mtb proteasome (Mycobacterium tuberculosis, UniProt P9WHT9), readout IA: inhibitory activity of Mtb proteasome, item CC(C)(O)[C@H]1CC[C@@](C)([C@H]2[C@@H](O)C[C@@]3(C)[C@@H]4C[C@H](O[C@@H]5O[C@H](CO)[C@@H](O)[C@H](O)[C@H]5O)[C@H]5C(C)(C)[C@@H](O[C@@H]6OC[C@@H](O)[C@H](O)[C@H]6O)CC[C@@]56C[C@@]46CC[C@]23C)O1 [astragaloside A]
23.59

Quick check: IA: inhibitory activity of Mtb proteasome on Mtb proteasome (Mycobacterium tuberculosis, UniProt P9WHT9), item COc1cc2ccc(=O)oc2c(O[C@@H]2O[C@H](CO)[C@@H](O)[C@H](O)[C@H]2O)c1O ?
0.00

Find the measured IA: inhibitory activity of Mtb proteasome: item COc1ccc2cc1Oc1ccc(cc1)C[C@H]1c3cc(c(OC)cc3CCN1C)Oc1c(O)c(OC)cc3c1[C@H](C2)N(C)CC3 , target or system Mtb proteasome (Mycobacterium tuberculosis, UniProt P9WHT9).
0.00

Record lookup: for Mtb proteasome (Mycobacterium tuberculosis, UniProt P9WHT9), what IA: inhibitory activity of Mtb proteasome belongs to COc1c(O[C@@H]2O[C@H](C(=O)O)[C@@H](O)[C@H](O)[C@H]2O)cc(O)c2c(=O)cc(-c3ccccc3)oc12 [wogonoside] ?
59.01

Query IA: inhibitory activity of Mtb proteasome on Mtb proteasome (Mycobacterium tuberculosis, UniProt P9WHT9) for COc1cc2c(c(OC)c1OC)-c1c(cc(OC)c(OC)c1OC)C[C@H](C)[C@H](C)C2
23.86

Field: IA: inhibitory activity of Mtb proteasome (Mtb proteasome (Mycobacterium tuberculosis, UniProt P9WHT9)). Entry: C=C[C@H]1[C@H](O[C@@H]2O[C@H](CO)[C@@H](O)[C@H](O)[C@H]2O)OC=C2C(=O)OCC[C@]21O
14.39

Given the entry C/C=C(/C)C(=O)O[C@H]1[C@@H](OC(C)=O)c2c(ccc3ccc(=O)oc23)OC1(C)C , what IA: inhibitory activity of Mtb proteasome was observed with Mtb proteasome (Mycobacterium tuberculosis, UniProt P9WHT9)?
0.00

For Mtb proteasome (Mycobacterium tuberculosis, UniProt P9WHT9), provide IA: inhibitory activity of Mtb proteasome of C=C1C(=O)O[C@@H]2C[C@@]3(C)CCC[C@H](C)C3=C[C@H]12 please.
32.12

// fetch Mtb proteasome (Mycobacterium tuberculosis, UniProt P9WHT9) IA: inhibitory activity of Mtb proteasome for COC(=O)c1c2c(c3ccccc3c1O)OC(C)(C)C=C2
46.37

Provide value of IA: inhibitory activity of Mtb proteasome for this record tested with Mtb proteasome (Mycobacterium tuberculosis, UniProt P9WHT9): O=c1oc2c(O)c(O)cc3c(=O)oc4c(O)c(O)cc1c4c23
62.50

What value of IA: inhibitory activity of Mtb proteasome on Mtb proteasome (Mycobacterium tuberculosis, UniProt P9WHT9) does C=C1CC[C@@H]2[C@](C)(CO)[C@H](O)CC[C@@]2(C)[C@@H]1/C=C/C1=CCOC1=O [dehydroandrographolide] have?
32.67

Observed IA: inhibitory activity of Mtb proteasome on Mtb proteasome (Mycobacterium tuberculosis, UniProt P9WHT9) for COc1cc(C)c(C(=O)Oc2cc(C)c(C(=O)O)c(O)c2C)c(OC)c1C , please.
0.00

Write down the reported IA: inhibitory activity of Mtb proteasome of COc1c(O)cc2oc3cc(O)c(CC=C(C)C)c(O)c3c(=O)c2c1CC=C(C)C , test system: Mtb proteasome (Mycobacterium tuberculosis, UniProt P9WHT9).
64.16
